Origin of measurements: patent US9303017B2

Provide the reported Ki Ratio α3β4/α4β2 of each item.
TARGET OR SYSTEM: α4β2 nAChR (Rattus norvegicus (Rat), UniProt P09483+P12390)
Sequence (P09483 31-630 limits assumed): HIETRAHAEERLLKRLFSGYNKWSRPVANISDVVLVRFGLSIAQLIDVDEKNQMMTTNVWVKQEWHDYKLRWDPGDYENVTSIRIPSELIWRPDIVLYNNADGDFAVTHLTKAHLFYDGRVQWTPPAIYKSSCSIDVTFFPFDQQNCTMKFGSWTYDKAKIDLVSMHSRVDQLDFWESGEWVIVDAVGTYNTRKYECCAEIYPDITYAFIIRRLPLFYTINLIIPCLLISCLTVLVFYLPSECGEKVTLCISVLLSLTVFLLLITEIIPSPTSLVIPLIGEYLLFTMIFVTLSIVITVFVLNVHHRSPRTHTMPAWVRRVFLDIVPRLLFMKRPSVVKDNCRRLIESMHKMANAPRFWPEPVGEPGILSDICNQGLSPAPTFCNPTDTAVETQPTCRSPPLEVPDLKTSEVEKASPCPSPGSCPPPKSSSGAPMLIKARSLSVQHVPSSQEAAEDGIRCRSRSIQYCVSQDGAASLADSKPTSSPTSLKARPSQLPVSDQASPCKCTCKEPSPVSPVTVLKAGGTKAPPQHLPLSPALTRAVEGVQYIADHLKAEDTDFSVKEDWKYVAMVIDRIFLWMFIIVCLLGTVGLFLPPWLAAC
Sequence (P12390 25-500 limits assumed): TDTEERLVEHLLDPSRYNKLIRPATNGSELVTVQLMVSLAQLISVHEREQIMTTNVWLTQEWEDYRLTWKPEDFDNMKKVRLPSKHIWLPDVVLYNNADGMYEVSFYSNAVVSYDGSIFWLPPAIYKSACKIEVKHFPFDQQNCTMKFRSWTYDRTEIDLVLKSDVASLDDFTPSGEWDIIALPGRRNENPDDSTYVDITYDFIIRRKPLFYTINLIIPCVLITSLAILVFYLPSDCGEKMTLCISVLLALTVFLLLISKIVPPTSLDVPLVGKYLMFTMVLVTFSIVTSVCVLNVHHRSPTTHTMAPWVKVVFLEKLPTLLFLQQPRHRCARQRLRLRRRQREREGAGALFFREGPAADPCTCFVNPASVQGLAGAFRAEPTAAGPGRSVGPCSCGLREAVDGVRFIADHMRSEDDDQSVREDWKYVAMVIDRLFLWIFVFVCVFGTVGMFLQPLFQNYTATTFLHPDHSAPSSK
ASSAY PROCEDURE: biochemical
Format: binding
ASSAY CONTEXT: selectivity for α4β2 over α3β4

Reported Ki Ratio α3β4/α4β2 ( CCCCC#Cc1cnc(C)c(OC[C@H]2CCCN2)c1 [(R)-16] ) = 22

Form field Ki Ratio α3β4/α4β2, entry Cc1ncc(C#CC2CC2)cc1OC[C@@H]1CCN1 [(S)-27] : 16,000

Summary for this compound, Cc1ncc(C#CCCCCO)cc1OC[C@@H]1CCN1 [(S)-17] : Ki Ratio α3β4/α4β2 is 70,000

Entry CCCCC#Cc1cnc(C)c(OC[C@@H]2CCN2)c1 [(S)-15] — recorded Ki Ratio α3β4/α4β2 = 19,000

Noted for Cc1ncc(C#CCCCCCl)cc1OC[C@@H]1CCN1 [(S)-21] : its Ki Ratio α3β4/α4β2 reads 17,000

Quick note, Ki Ratio α3β4/α4β2 for CCCCC#Cc1cnc(C)c(OC[C@H]2CCN2)c1 [(R)-15] landed at 270

Looking up OCCCCC#Cc1cncc(OC[C@@H]2CCN2)c1 [Sazetidine-A, reference compound] , I found its Ki Ratio α3β4/α4β2 recorded as 31,000
